tested on: HIV-1NL4.3; assay: microbe, parasite or virus in culture; assay type: cell-based; conditions: Human immunodeficiency virus 1; 10 μM; HIV-1NL4.3 0.1 MOI; TZM-bl cells; luminescence 48 h; read-out: % Inhibition at 10 μM Concentration
Structures can show the parent of a compound that is named as a salt.
ASSAY_ENDPOINT: inhibition at 10 µM (%)
Kindly answer with a numeric value in %, unit omitted.

Lookup: Name the recorded inhibition at 10 µM for COC(=O)C1=C(C)NC(C)=C(C(=O)OCCN(C)Cc2ccccc2)C1c1cccc([N+](=O)[O-])c1 (stereo not drawn) [Nicardipine hydrochloride] .
Found: 99.6

Lookup: Same thing, different compound: CC(=O)O[C@]1(C(C)=O)CC[C@H]2[C@@H]3C=C(Cl)C4=CC(=O)[C@@H]5C[C@@H]5[C@]4(C)[C@H]3CC[C@@]21C [Cyproterone acetate]
Found: 98.5

Lookup: Same thing, different compound: CCN(CC)CCCC(C)Nc1c2ccc(Cl)cc2nc2ccc(OC)cc12 (stereo not drawn) [Quinacrine dihydrochloride]
Found: 100

###

assay: MTT cytotoxicity in different cell types (CEM-GFP, Jurkat J6, U937, hPBMCs); assay type: cell-based; details: human; all the cell types tested (CEM-GFP, Jurkat J6, U937, hPBMCs)
ASSAY_ENDPOINT: CC50 at 48 h

Lookup: Name the recorded CC50 at 48 h for CN(Cc1cnc2nc(N)nc(N)c2n1)c1ccc(C(=O)N[C@@H](CCC(=O)O)C(=O)O)cc1 [Methotrexate Hydrate] .
Found: 50 to 75 µM

###

tested on: HIV-1NL4.3; assay: microbe, parasite or virus in culture; format: cell-based; settings: Human immunodeficiency virus 1; 10 μM; HIV-1NL4.3 0.1 MOI; TZM-bl cells; luminescence 48 h; read-out: % Inhibition at 10 μM Concentration
Counter-ions that a name gives are not always drawn.
ASSAY_ENDPOINT: inhibition at 10 µM
Show the value, then the unit it is measured in.

Lookup: Name the recorded inhibition at 10 µM for CC(C)(C)c1ccc(C(O)CCCN2CCC(C(O)(c3ccccc3)c3ccccc3)CC2)cc1 (stereo not drawn) .
Found: 98.7%

Lookup: Same thing, different molecule: O=C1Cc2c([nH]c3ccc(Br)cc23)-c2ccccc2N1
Found: 98.7%

Lookup: Same thing, different molecule: CC[N+](CC)(CC)CCOc1ccc(/C=C/c2ccccc2)cc1
Found: 97.1%

Lookup: Same thing, different molecule: CN[C@@H]1C[C@@H](c2ccc(Cl)c(Cl)c2)c2ccccc21 [Indatraline hydrochloride]
Found: 97.4%

Lookup: Same thing, different molecule: CCCCN(CC)c1nc(C)nc2c1c(C)cn2-c1c(C)cc(C)cc1C [CP-154526 hydrochloride]
Found: 97.1%

Lookup: Same thing, different molecule: N=C(N)N/N=C/c1c(Cl)cccc1Cl [Guanabenz acetate]
Found: 99.6%

Lookup: Same thing, different molecule: CN(Cc1cnc2nc(N)nc(N)c2n1)c1ccc(C(=O)N[C@@H](CCC(=O)O)C(=O)O)cc1 [Methotrexate Hydrate]
Found: 98.5%

Lookup: Same thing, different molecule: CNCCC=C1c2ccccc2CCc2ccccc21 [Nortriptyline hydrochloride]
Found: 99.2%

Lookup: Same thing, different molecule: Cc1cnc(C(=O)NCCc2ccc(S(=O)(=O)NC(=O)NC3CCCCC3)cc2)cn1 [Glipizide]
Found: 98.5%

Lookup: Same thing, different molecule: CCCCNc1c(C(=O)OCC)c(C)nc2c1cnn2CC [Tracazolate]
Found: 99.1%

Lookup: Same thing, different molecule: OCCN1CCN(CCCN2c3ccccc3Sc3ccc(Cl)cc32)CC1
Found: 99.6%

Lookup: Same thing, different molecule: O=C(O)C1=CC(=C(c2ccc(O)c(C(=O)O)c2)c2ccc(O)c(C(=O)O)c2)C=CC1=O
Found: 97.2%

Lookup: Same thing, different molecule: NC(=O)CN1CC(O)CC1=O (stereo not drawn)
Found: 96.5%

Lookup: Same thing, different molecule: O=C1c2c(O)ccc(O)c2C(=O)c2c(NCCNCCO)ccc(NCCNCCO)c21
Found: 97.1%

Lookup: Same thing, different molecule: CCN(CC)CCOc1ccc(Nc2ncc3cc(-c4c(Cl)cccc4Cl)c(=O)n(C)c3n2)cc1 [PD-166285 hydrate]
Found: 97%

Lookup: Same thing, different molecule: CC[C@@]1(O)C(=O)OCc2c1cc1n(c2=O)Cc2cc3c(CN(C)C)c(O)ccc3nc2-1 [Topotecan hydrochloride hydrate]
Found: 98.1%

Lookup: Same thing, different molecule: COc1cc2nc(N3CCN(C(=O)C4COc5ccccc5O4)CC3)nc(N)c2cc1OC (stereo not drawn) [Doxazosin mesylate]
Found: 100%

Lookup: Same thing, different molecule: Cc1ccc(-c2cc(C(F)(F)F)nn2-c2ccc(S(N)(=O)=O)cc2)cc1
Found: 95.1%
